We begin with a simple list: items and their reported Solubility in 9:1 Water:Ethanol.
assay: solubility in 9:1 water:ethanol (HPLC of filtrate); conditions: stirred 15 hours, 0.45 μm PTFE filter, HPLC
Number in µg/mL, nothing else.

// known answers, use as guide
| compound | reported-endpoint | unit | endpoint-value |
| --- | --- | --- | --- |
| CCC(O)C(=O)[O-].[Au+].c1ccc(P(CCP(c2ccccc2)c2ccccc2)c2ccccc2)cc1.c1ccc(P(CCP(c2ccccc2)c2ccccc2)c2ccccc2)cc1 | Solubility in 9:1 Water:Ethanol | µg/mL | 900 |
| O=S(=O)([O-])C(F)(F)F.[Au+].c1ccc(P(CCP(c2ccccc2)c2ccccc2)c2ccccc2)cc1.c1ccc(P(CCP(c2ccccc2)c2ccccc2)c2ccccc2)cc1 | Solubility in 9:1 Water:Ethanol | µg/mL | 20 |
| O=C([O-])CO.[Au+].c1ccc(P(CCP(c2ccccc2)c2ccccc2)c2ccccc2)cc1.c1ccc(P(CCP(c2ccccc2)c2ccccc2)c2ccccc2)cc1 | Solubility in 9:1 Water:Ethanol | µg/mL | 8600 |

Please look up its Solubility in 9:1 Water:Ethanol: O=C([O-])C1OC(O)C(O)C(O)C1O.[Au+].c1ccc(P(CCP(c2ccccc2)c2ccccc2)c2ccccc2)cc1.c1ccc(P(CCP(c2ccccc2)c2ccccc2)c2ccccc2)cc1
300

Please look up its Solubility in 9:1 Water:Ethanol: CS(=O)(=O)[O-].[Au+].c1ccc(P(CCP(c2ccccc2)c2ccccc2)c2ccccc2)cc1.c1ccc(P(CCP(c2ccccc2)c2ccccc2)c2ccccc2)cc1
30

Please look up its Solubility in 9:1 Water:Ethanol: O=C([O-])CCCO.[Au+].c1ccc(P(CCP(c2ccccc2)c2ccccc2)c2ccccc2)cc1.c1ccc(P(CCP(c2ccccc2)c2ccccc2)c2ccccc2)cc1
2900

Please look up its Solubility in 9:1 Water:Ethanol: O=[N+]([O-])[O-].[Au+].c1ccc(P(CCP(c2ccccc2)c2ccccc2)c2ccccc2)cc1.c1ccc(P(CCP(c2ccccc2)c2ccccc2)c2ccccc2)cc1
30

Please look up its Solubility in 9:1 Water:Ethanol: O=S(=O)([O-])[O-].c1ccc([PH]2(c3ccccc3)CC[PH](c3ccccc3)(c3ccccc3)[Au+]23[PH](c2ccccc2)(c2ccccc2)CC[PH]3(c2ccccc2)c2ccccc2)cc1.c1ccc([PH]2(c3ccccc3)CC[PH](c3ccccc3)(c3ccccc3)[Au+]23[PH](c2ccccc2)(c2ccccc2)CC[PH]3(c2ccccc2)c2ccccc2)cc1 (stereo not drawn)
30

---

system: B16 melanoma; test: in vivo ip B16 melanoma assay; set-up: species or system mice (B6D2F1); settings: B6D2F1 mice, ip qDX10
We begin with a simple list: items and their reported MTD (maximally tolerated dose).

Please look up its MTD (maximally tolerated dose): [Au+].[Cl-].c1ccc(P(CCCP(c2ccccc2)c2ccccc2)c2ccccc2)cc1.c1ccc(P(CCCP(c2ccccc2)c2ccccc2)c2ccccc2)cc1
2 mg/kg

Please look up its MTD (maximally tolerated dose): C1=C[PH](c2ccccc2)(c2ccccc2)[Cu+]2([PH]1(c1ccccc1)c1ccccc1)[PH](c1ccccc1)(c1ccccc1)C=C[PH]2(c1ccccc1)c1ccccc1.[Cl-] (stereo not shown)
0.75 mg/kg

Please look up its MTD (maximally tolerated dose): [Au+].[Cl-].c1ccc(P(CCP(c2ccccc2)c2ccccc2)c2ccccc2)cc1.c1ccc(P(CCP(c2ccccc2)c2ccccc2)c2ccccc2)cc1
2 mg/kg

Please look up its MTD (maximally tolerated dose): O=C([O-])C1OC(O)C(O)C(O)C1O.[Au+].c1ccc(P(CCP(c2ccccc2)c2ccccc2)c2ccccc2)cc1.c1ccc(P(CCP(c2ccccc2)c2ccccc2)c2ccccc2)cc1
1.5 mg/kg

Please look up its MTD (maximally tolerated dose): O=C([O-])C(O)CO.[Au+].c1ccc(P(CCP(c2ccccc2)c2ccccc2)c2ccccc2)cc1.c1ccc(P(CCP(c2ccccc2)c2ccccc2)c2ccccc2)cc1
0.75 mg/kg

Please look up its MTD (maximally tolerated dose): [Cl-].[Cu+].c1ccc(P(CCCP(c2ccccc2)c2ccccc2)c2ccccc2)cc1.c1ccc(P(CCCP(c2ccccc2)c2ccccc2)c2ccccc2)cc1
1 mg/kg

Please look up its MTD (maximally tolerated dose): CC(O)C(=O)[O-].[Au+].c1ccc(P(CCP(c2ccccc2)c2ccccc2)c2ccccc2)cc1.c1ccc(P(CCP(c2ccccc2)c2ccccc2)c2ccccc2)cc1
1.5 mg/kg
